target: human CB1 receptor (hCB1) (Homo sapiens); test: cell-based; format: cell-based
Sequence (P21554 whole entry): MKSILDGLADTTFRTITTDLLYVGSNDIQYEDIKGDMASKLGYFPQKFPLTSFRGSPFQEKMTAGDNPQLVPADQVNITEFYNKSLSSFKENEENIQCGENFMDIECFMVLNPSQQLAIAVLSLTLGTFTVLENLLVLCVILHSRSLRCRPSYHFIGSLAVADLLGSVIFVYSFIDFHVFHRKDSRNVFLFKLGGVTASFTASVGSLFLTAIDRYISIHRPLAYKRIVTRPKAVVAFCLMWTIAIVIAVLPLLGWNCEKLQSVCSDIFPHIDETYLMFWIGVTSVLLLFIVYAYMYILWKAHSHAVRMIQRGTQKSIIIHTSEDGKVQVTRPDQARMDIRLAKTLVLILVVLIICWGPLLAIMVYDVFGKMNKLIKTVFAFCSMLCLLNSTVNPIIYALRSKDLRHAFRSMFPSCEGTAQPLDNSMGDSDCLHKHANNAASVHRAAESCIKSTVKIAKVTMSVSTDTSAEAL
OUTCOME_MEASURE: EC50

Request: Item under review: CNC(=O)[C@@H](NC(=O)c1nc(-c2ccc(C#N)cc2)n2c1CN(C)CC2)C(C)(C)C [Compound 254] . Reported EC50?
Result: > 10 µM

Request: Would you mind doing CNC(=O)[C@H](CC(C)C)NC(=O)c1nc(-c2ccc(C(F)(F)F)cc2F)n2c1CN(C)CCC2 [Compound 533] as well?
Result: > 10 µM

Request: Please give the result for CNC(=O)[C@@H](NC(=O)c1nc(-c2ccccc2)n2c1CN(S(=O)(=O)c1ccc(C(F)(F)F)cc1)CC2)C(C)(C)C [Compound 107] too.
Result: > 10 µM

Request: Subsequent entry: CC(C)(C)[C@@H](CO)NC(=O)c1nc(-c2ccc(Cl)cc2)n2c1CNCC2 [Compound 43]
Result: > 10 µM

---

molecular target: rat CB2 receptor (rCB2) (Rattus norvegicus); test: cell-based; assay type: cell-based; conditions: agonist or inverse agonist at rCB2
Sequence (Q9QZN9 whole entry): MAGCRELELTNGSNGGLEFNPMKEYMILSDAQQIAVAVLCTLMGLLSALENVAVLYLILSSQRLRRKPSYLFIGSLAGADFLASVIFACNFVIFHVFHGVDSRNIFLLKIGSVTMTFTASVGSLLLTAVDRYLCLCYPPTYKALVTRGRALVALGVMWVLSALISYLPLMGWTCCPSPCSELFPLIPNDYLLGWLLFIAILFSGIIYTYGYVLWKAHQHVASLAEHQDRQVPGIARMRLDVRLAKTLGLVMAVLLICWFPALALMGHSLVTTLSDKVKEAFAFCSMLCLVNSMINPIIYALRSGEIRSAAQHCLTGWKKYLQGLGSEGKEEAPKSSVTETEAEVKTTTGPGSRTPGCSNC
OUTCOME_MEASURE: +/− RCB2

Here is how some molecules turned out for +/− RCB2.
1. CN1CCCn2c(-c3ccc(F)c(Cl)c3)nc(C(=O)N[C@H](C(=O)N(C)C)C(C)(C)C)c2C1 [Compound 558]
+
2. CC(C)(C)OC(=O)N1CCCn2c(-c3ccccc3)nc(C(=O)N[C@H](C(=O)O)C(C)(C)C)c2C1 [Compound 515]
−
3. C=C(c1ccccc1)c1nc(C(=O)N[C@H](C(=O)NC)C(C)(C)C)c2n1CCCN(C)C2 [Compound 455]
+
4. CNC(=O)[C@@H](NC(=O)c1nc(-c2cc(Cl)ccc2F)n2c1CN(C)CCC2)C(C)(C)C [Compound 361]
+
5. CCS(=O)(=O)N1CCn2c(-c3ccccc3)nc(C(=O)NCC3CCOCC3)c2C1 [Compound 117]
−
6. CN1CCn2c(-c3ccccc3)nc(C(=O)CC(C)(C)C)c2C1 [Compound 292]
−
7. CNC(=O)[C@@H](NC(=O)c1nc(-c2ccc(C(F)(F)F)cc2)n2c1CN(C)CCC2)C(C)(C)C [Compound 330]
−
8. CNC(=O)[C@@H](NC(=O)c1nc(C2=CCC3(CC2)OCCO3)n2c1CN(C)CCC2)C(C)(C)C [Compound 448]
+
9. CNC(=O)[C@@H](NC(=O)c1nc(-c2ccccc2)n2c1CN(C(=O)OC(C)(C)C)CC2)C(C)(C)C [Compound 1]
−
10. CNC(=O)[C@@H](NC(=O)c1nc(-c2ccccc2)n2c1CNCCC2)C(C)(C)C [Compound 314]
−

Request: Would you kindly share the measured +/− RCB2 for CNC(=O)[C@@H](NC(=O)c1nc(CCCN2CCCC2)n2c1CN(C)CC2)C(C)(C)C [Compound 308] ?
Result: −

Request: Another molecule to look at: CN1CCCn2c(-c3ccc(F)c(F)c3)nc(C(=O)N[C@@H](CC(C)(C)C)C(N)=O)c2C1 [Compound 586]
Result: +

Request: What about CNC(=O)[C@@H](NC(=O)c1nc(C2CCC(F)(F)CC2)n2c1CN(C)CCC2)C(C)(C)C [Compound 528] ?
Result: +

Request: Also check Cc1noc([C@@H](NC(=O)c2nc(-c3ccccc3)n3c2CNCCC3)C(C)(C)C)n1 [Compound 519]
Result: +

Request: What do you have for CC(C)CN1CCn2c(-c3ccccc3)nc(C(=O)NC3CCCCC3)c2C1 [Compound 165] ?
Result: −

Request: Continue with CNC(=O)[C@@H](NC(=O)c1nc(-c2c(C)noc2C)n2c1CN(C)CCC2)C(C)(C)C [Compound 442]
Result: +

Request: Also, CNC(=O)[C@@H](NC(=O)c1nc(-c2ccccc2)n2c1CN(C(=O)C1CC1)CC2)C(C)(C)C [Compound 126] please.
Result: −

Request: Next: CNC(=O)[C@@H](NC(=O)c1nc(-c2ccc(F)c(Cl)c2)n2c1CN(C)CCC2)C(C)(C)C [Compound 372]
Result: +
